Measured inhibition by item
- Procedure details: growth inhibition of non-replicating M. tuberculosis (AID 488890);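 also: plate controls were DMSO cells for no effect and high antibiotic wells for full effect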
- Condition label: Mycobacterium tuberculosis non-replicating, at 25 µM, stronger effect = higher value
About 1,300 (0.41%) of roughly 320,000 compounds were called active. Not shown: some 3% with an inconclusive outcome. Not all results are given here. Results with a measured potency or affinity are listed apart.
Hi! Could you send only the number? It should be in %, unit omitted.

Solved cases (3 shown):
> print(dat)
                                   compound  measured.endpoint  quantitative.result
1  CNC(C)C#Cc1ccc2c(=O)c3c(OC)cccc3oc2c1 (stereo not given)         inhibition                 42.6
2  CCOC(=O)c1c(NC(=O)C2Cc3ccccc3C(=O)O2)sc2c1CCCC2 (stereo not given)         inhibition                -2.64
3  Cc1ccc(NC(=O)COC(=O)c2cc(=O)c3ccccc3o2)c(Br)c1         inhibition                 6.59

COc1cc(C(=O)NC(=S)NNC(=O)[C@H]2C[C@@H]2c2ccccc2)cc(OC)c1OC has a reported inhibition of 62.4

COc1ccc2c(=O)c(-c3ccccc3C)c(C)oc2c1 has a reported inhibition of 50.8

COc1cc(OC)cc(C(=O)NC(=S)NNC(=O)[C@H]2C[C@@H]2c2ccccc2)c1 has a reported inhibition of 78.5

COc1ccc(Cl)cc1S(=O)(=O)n1c([N+](=O)[O-])cnc1C has a reported inhibition of -6.01

O=C(NCc1ccccn1)c1cccc(S(=O)(=O)N2CCCCC2)c1 has a reported inhibition of -1.8

O=C(O)c1cccc(S(=O)(=O)N2CCC(n3nnc4cc(C(F)(F)F)ccc43)CC2)c1 has a reported inhibition of 3.59

Nc1cc(N)nc(SCC(=O)Nc2ccc3c(c2)OCO3)n1 has a reported inhibition of 2.02

---

- Procedure details: growth inhibition of non-replicating M. tuberculosis (AID 488890);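 also: plate controls were DMSO cells for no effect and high antibiotic wells for full effect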
- Condition label: Mycobacterium tuberculosis non-replicating, at 25 µM, stronger effect = higher value
Hit rate of the full screen: of about 320,000 compounds, about 1,300 (0.41%) were called active. Inconclusive results (about 3%) are left out. These entries were drawn from the full list. Potency and affinity values are given separately.
So basically: inhibition at 30% or higher? That is Condition met. Lower than 30%? That is Condition not met.

Worked examples follow.
> print(dat)
                                   molecule   class.assignment
1  Oc1c(C(c2ccccn2)N2CCCCC2)cc(Cl)c2cccnc12 (configuration not stated)      Condition met
2  Cc1nc(C(=O)NCC(=O)c2ccc(Cl)cc2)c(C(F)(F)F)o1      Condition met
3             CCOC(=O)c1cn(Cc2ccc(C)cc2)nn1      Condition met
4  O=C(C1CCCN(S(=O)(=O)c2ccc(Br)cc2)C1)N1CCOCC1 (configuration not stated)  Condition not met
5                   O=C1CCC(=O)N1CNc1cccnc1  Condition not met

Hello, I need to know if Cc1ccc(N=Cc2nc(-c3ccco3)oc2O)cc1 has measured inhibition not below 30%. Thanks!
Condition met

Hello, I need to know if CN(C1CCCCC1)S(=O)(=O)c1cccc(C(=O)Nc2ccccn2)c1 has measured inhibition not below 30%. Thanks!
Condition not met
